assay: chemical genetic growth profiling, strain panel (AID 1159580);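 also: tested at 20 µM; growth read once vehicle control cultures reached saturation at 30 °C; 1 = growth at the plate median or of vehicle wells; lower values mean less growth of the strain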; settings: S. cerevisiae deletion strains, growth OD, locus YKL085W, strain MDH1, stronger effect = lower value
Screen size: about 5,500 compounds; about 2,000 (36%) were called active. Inconclusive results (about 18%) are left out. The list shows a part of the results.

{"COMPOUND": "CN(C)CCOC(c1ccc(Cl)cc1)c1ccccn1 (centres undefined)", "normalized growth": 0.989}
{"COMPOUND": "NS(=O)(=O)c1cc2c(cc1Cl)NC=NS2(=O)=O", "normalized growth": 0.998}
{"COMPOUND": "CCCCNC(=O)NS(=O)(=O)c1ccc(C)cc1", "normalized growth": 0.973}
{"COMPOUND": "C[n+]1c2cc(N)ccc2cc2ccc(N)cc21", "normalized growth": 0.963}
{"COMPOUND": "Clc1ccc(C(c2ccc(Cl)cc2)C(Cl)(Cl)Cl)cc1", "normalized growth": 1.01}
{"COMPOUND": "CCC[C@H](N[C@@H](C)C(=O)N1[C@H](C(=O)O)C[C@@H]2CCCC[C@@H]21)C(=O)OCC", "normalized growth": 1.01}
{"COMPOUND": "O=c1cccc2ccc(O)c(O)c2c1O", "normalized growth": 1.04}
{"COMPOUND": "Clc1ccc(C(OCCN2CCCCC2)c2ccccc2)cc1 (centres undefined)", "normalized growth": 0.997}
{"COMPOUND": "CC1(C)CCC[C@@]2(C)C1[C@@H](O)C[C@]1(C)C2CC[C@@H]2[C@@]3(C)CC[C@H](C(C)(C)O)[C@@H]3CC[C@@]21C (some centres undefined)", "normalized growth": 1.04}
{"COMPOUND": "C=C[C@@](C)(O)CCC1C(=C)CCC2[C@@](C)(CO)CCC[C@]12C (some centres undefined)", "normalized growth": 0.994}
{"COMPOUND": "COC(=O)c1cc(=O)c(O)c2c(O)c(O)ccc2c1", "normalized growth": 0.793}
{"COMPOUND": "Cn1c(=O)c2c(ncn2CC(O)CO)n(C)c1=O (centres undefined)", "normalized growth": 1.01}
{"COMPOUND": "CNC(=O)O/N=C(\\C)SC", "normalized growth": 0.985}
{"COMPOUND": "O=C1NCC2(CCN(CCc3ccccc3)CC2)O1", "normalized growth": 0.995}
{"COMPOUND": "Cc1ccc(S(=O)(=O)NC(=O)NN2CCCCCC2)cc1", "normalized growth": 0.977}
{"COMPOUND": "CNCCC(Oc1ccc(C(F)(F)F)cc1)c1ccccc1 (centres undefined)", "normalized growth": 0.999}
{"COMPOUND": "c1ccc2c(c1)sc1ccccc12", "normalized growth": 0.971}
{"COMPOUND": "NC(=O)c1ccc[n+]([C@@H]2O[C@H](COP(=O)([O-])OP(=O)(O)OC[C@H]3O[C@@H](n4cnc5c(N)ncnc54)[C@H](OP(=O)(O)O)[C@@H]3O)[C@@H](O)[C@H]2O)c1", "normalized growth": 0.99}
{"COMPOUND": "Cc1ccccc1C(OCCN(C)C)c1ccccc1 (centres undefined)", "normalized growth": 1}
{"COMPOUND": "CCCCCCC(C)OC(=O)COc1cc(Cl)c(Cl)cc1Cl (centres undefined)", "normalized growth": 0.986}
{"COMPOUND": "COc1ccc(C(CN(C)C)C2(O)CCCCC2)cc1 (centres undefined)", "normalized growth": 0.994}
{"COMPOUND": "COc1ccc(C(c2ccc(OC)cc2)C(Cl)(Cl)Cl)cc1", "normalized growth": 0.999}
{"COMPOUND": "C[C@@H]1CC(Cl)CC[C@H]1C(=O)OC(C)(C)C (some centres undefined)", "normalized growth": 0.977}
{"COMPOUND": "NCCc1cnc[nH]1", "normalized growth": 1.01}
